Tested on: P388 leukemia ip, CD2F1 mice, survival T/C
TEST DETAILS: NCI In Vivo Anticancer Drug Screen. Data for tumor model P388 Leukemia (intraperitoneal) in CD2F1 (CDF1) mice
CONDITION: endpoint: median survival time; dose: 60.0 mg/kg/injection; schedule: Q01DX005 (ip); vehicle: Klucel (hydroxypropylcellulose) (HPC); higher = longer survival
Toxic doses and inconclusive results are not listed.
MEASURED ATTRIBUTE: T/C

> print(dat)
                                   compound    value.observed
1          CCc1nc2c(Br)c3oc(CC)nc3c(Br)c2o1  103 % of control
2  CC1=CC(O)(c2ccccn2)P(=O)(c2ccccc2)C=C1C (stereo not given)  115 % of control
3  CN(C)c1ccc(C=C2C(=O)N(c3ccccc3)C(=S)N(c3ccccc3)C2=O)cc1   90 % of control
4  CCc1nc(-c2ccccc2)nc2c1nc(-c1cccc(C)c1)n2Nc1ccccc1   97 % of control
5  COC(=O)NN(C(=O)OC)C1CCCC2C1c1ccc3ccccc3c1N(C(=O)OC)N2C(=O)OC (stereo not given)  107 % of control
